All figures here come from ChEMBL document CHEMBL4732172.

Test system: PC-12
experiment: Neurotrophic activity in rat PC-12 cells assessed as neurite outgrowth promoting activity in NGF-induced cells by measuring differentiation rate at 10 […] (reference value: 4.24 +/- 0.03 %)
Type: functional
Design: concentration or dose not given beside the values
measured_parameter: Activity

> print(dat)
                                     smiles  reading
1  C[C@@H]1CC=C2[C@]13C[C@@]1(O)OC(OC[C@@]2(C)[C@@]1(C)O)[C@@H]3OC(=O)CCc1ccc(Br)cc1    6.03%
2  C[C@@H]1CC[C@@]2(O)[C@]13C[C@@]1(OC(=O)Cc4ccc(Br)cc4)OC(OC[C@@]2(C)[C@@]1(C)O)[C@@H]3O    6.12%
3  C[C@@H]1CC=C2[C@]13C[C@@]1(O)OC(OC[C@@]2(C)[C@@]1(C)O)[C@@H]3OC(=O)CCc1ccc(Cl)cc1    6.05%
